The reported numbers originate from patent US12502430B2.

- System: HeLa cells
- ASSAY_EXPLANATION: MTT photo/dark cytotoxicity assay with blue light irradiation
- Format: cell-based
- CONDITIONS_USED: HeLa cells, normoxia, after blue light irradiation; read-out: IC50 (photocytotoxicity)
Known IC50 of a selection of compounds
ATTRIBUTE_MEASURED: IC50 (µM)

compound=S=c1c2cccc3cccc(c32)c2nc3ccccc3n12 attribute_measured=IC50 experimental_result=5.81
compound=S=c1c2cccc3cccc(c32)c2nc3cc4ccccc4cc3n12 attribute_measured=IC50 experimental_result=1.03
